Recorded values, source patent US7022733B2.

Each entry below lists one item and its recorded melting point value.

Reference set (10 entries):
{"columns": ["compound", "melting point"],
 "data": [
  ["CCOC(=O)c1cc(O)cc2cc(-c3ccc(O)cc3)oc12", "221 to 223 °C"],
  ["Oc1ccc(-c2cc3cc(O)cc(CBr)c3o2)cc1", "337 to 339 °C"],
  ["Oc1ccc(-c2cc(O)ccc2-c2cc3cc(O)ccc3o2)cc1", "238 to 239 °C"],
  ["Oc1ccc(-c2cc3cc(F)ccc3o2)cc1", "202 to 204 °C"],
  ["Oc1ccc(-c2cc3c(Cl)c(O)ccc3o2)cc1", "210 to 214 °C"],
  ["Nc1cc(O)cc2cc(-c3ccc(O)cc3)oc12", "251 to 254 °C"],
  ["CC(=NO)c1c(-c2ccc(O)cc2)oc2ccc(O)cc12", "217 °C"],
  ["CC(C)OC(=O)c1cc(O)cc2cc(-c3ccc(O)cc3)oc12", "> 250 °C"],
  ["COc1cc(O)c(C#N)c2cc(-c3ccc(O)c(F)c3)oc12 [Example 73a]", "265 to 267 °C"],
  ["O=C(O)c1ccc2oc(-c3ccc(O)cc3)cc2c1", "> 300 °C"]
]}

Now for a further compound.
Task item: Given COc1c(O)ccc2oc(-c3ccc(O)cc3)cc12 , state its recorded melting point.
Reply: 165 to 171.68 °C

---

metric: melting point

Reference set (3 entries):
{"columns": ["molecule", "melting point"],
 "data": [
  ["COC(=O)CCc1cc(O)cc2cc(-c3ccc(O)cc3)oc12 [Example 60]", "167 to 170 °C"],
  ["Oc1ccc(-c2cc3cc(O)cc(CC(F)(F)F)c3o2)cc1 [Example 141]", "210 to 213 °C"],
  ["Oc1ccc(-c2cc3cc(F)cc(F)c3o2)cc1 [Example 94, 4-(5,7-Difluoro-benzofuran-2-yl)-phenol]", "152 to 154 °C"]
]}

Task item: Given C=Cc1cc(O)cc2cc(-c3ccc(O)cc3)oc12 [Example 67] , state its recorded melting point.
Reply: 182 to 184 °C

Task item: Param item: Oc1ccc(-c2cc3c(Br)c(O)ccc3o2)cc1 [Example 130]
Reply: 196 to 198 °C

Task item: Param item: Oc1ccc(-c2cc3cc(O)cc(Cn4ccnc4)c3o2)cc1 [Example 16]
Reply: 269 to 271 °C

Task item: Param item: OCc1ccc2oc(-c3ccc(O)cc3)cc2c1 [Example 144]
Reply: 248 to 250 °C

Task item: Param item: CC(C)(C#N)c1cc(O)cc2cc(-c3ccc(O)cc3)oc12 [Example 22]
Reply: 284 °C

---

Each entry below lists one item and its recorded melting point value.

{"columns": ["compound", "melting point"],
 "data": [
  ["Oc1ccc2oc(-c3cc(OCc4ccccc4)c(O)cc3-c3ccccc3)cc2c1", "186 to 187 °C"],
  ["CC(O)c1c(-c2ccc(O)cc2)oc2ccc(O)cc12 (stereo not shown)", "177 to 182 °C"],
  ["O=C(c1cc(O)cc2cc(-c3ccc(O)cc3)oc12)C(F)(F)F", "215 to 216 °C"],
  ["CC(=O)c1c(-c2ccc(O)cc2)oc2ccc(O)cc12", "243 to 251 °C"],
  ["CCOCc1cc(O)cc2cc(-c3ccc(O)cc3)oc12", "166 to 168 °C"]
]}

Task item: Given NC(=O)C=Cc1cc(O)cc2cc(-c3ccc(O)cc3)oc12 , state its recorded melting point.
Reply: 275 °C (dec.)
